Answer each item with its documented growth.
# System: SNB-19 CNS
# MEASUREMENT PROTOCOL: NCI-60 one-dose screen, 48 h (100 = growth as untreated, 0 = no growth, -100 = all killed)
# COND: 10 µM unless noted
Compounds without any hit were thinned out: in the full panel of roughly 83,000, 20% have a hit.
One number for each entry, in %.

> print(dat)
                                   compound      target  readout  result.value
1  O=C(Nc1cccc(C(F)(F)F)c1)Oc1ccc(Cl)c2cccnc12  SNB-19 CNS   growth          46.1
2                  Nc1ccc(Oc2ccccc2)c(Cl)c1  SNB-19 CNS   growth           102
3  C[C@@]1(CO)[C@H](O)CC[C@@]2(C)[C@H]1CC[C@H]1C[C@@H]3C[C@@]12CC[C@@]3(O)COC(=O)CN  SNB-19 CNS   growth          59.6

Record growth for all entries; do not skip any.
1. Oc1ccc(Nc2ccc3ccccc3c2)cc1
2. CCCc1cc(=O)oc2c3c(c4c(c12)OC(C)(C)CC4)OC(C)[C@H](C)[C@@H]3O (some centres not stated)
3. Cc1cc(C(=O)c2ccc(Cl)cc2)ccc1O
4. CC(=O)C1Cc2ccccc2C1=O (configuration not stated)
5. O=C(c1ccccc1)C(Br)[N+](=O)[O-] (configuration not stated)
6. O=[N+]([O-])c1ccc(C2N(Cc3ccc(Cl)cc3)CCN2Cc2ccc(Cl)cc2)cc1

Completion:
1: 75.5; 2: 94.4; 3: 116; 4: 98; 5: 102; 6: 96.7

Record growth for all entries; do not skip any.
1. Oc1ccc2ccccc2c1N=Nc1nccs1
2. COc1ccc2nc3cc(Cl)ccc3c(NCCCCCN3CCCCC3)c2c1

Completion:
1. 74.2
2. 2.99

Record growth for all entries; do not skip any.
1. Nc1cc(-c2ccccc2)ccc1O
2. CC(C)Nc1ccc(Nc2ccc(NC(C)C)cc2)cc1
3. COc1cc(/C=C/C(=O)CC(=O)/C=C/c2ccc(O)c(OC)c2)ccc1O
4. CCCCCCCCCCCCSC(=N)N
5. O=C1C=CC(=O)N1C1CCCCCCCCCCC1
6. CCCCCCCCCCCCCCCc1ccc(C(=O)C[n+]2ccccc2)cc1
7. OC(CSc1ccccc1)CN1CCN(c2ccc(Cl)cc2)CC1 (configuration not stated)

Completion:
1: 98.5; 2: 28.6; 3: 48.2; 4: 69; 5: 97.1; 6: -84.1; 7: 94.7

Record growth for all entries; do not skip any.
1. O=C(Cc1ccccc1)C(F)(F)F
2. CCOC(=O)c1c(C)[nH]c2ccc(O)cc12
3. COc1cc(OC)c(/C=C/c2c3ccccc3cc[n+]2C)c(OC)c1

Completion:
109
101
35.8

According to the records, this compound CN(C)CCSC1=Nc2ccc(Cl)cc2C(c2ccccc2Cl)N(C)C1 (configuration not stated) displays growth of 63.1
